Biological target: κ-opioid receptor (KOR) (Homo sapiens)
Construct: NIMH Psychoactive Drug Screening Program (PDSP)
Sequence (P41145 whole entry): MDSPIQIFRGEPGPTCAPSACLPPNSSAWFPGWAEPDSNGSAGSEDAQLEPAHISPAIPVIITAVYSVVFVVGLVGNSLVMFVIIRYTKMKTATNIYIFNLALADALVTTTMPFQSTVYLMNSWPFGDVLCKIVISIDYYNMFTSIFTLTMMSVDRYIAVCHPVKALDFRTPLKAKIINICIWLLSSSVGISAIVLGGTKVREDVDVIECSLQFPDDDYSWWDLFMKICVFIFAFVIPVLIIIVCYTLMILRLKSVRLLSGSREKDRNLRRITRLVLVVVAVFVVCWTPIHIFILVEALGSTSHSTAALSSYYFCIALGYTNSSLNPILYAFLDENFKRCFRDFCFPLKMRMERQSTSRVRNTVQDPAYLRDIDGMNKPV
Experiment: PDSP binding assay, κ-opioid
Details: Table S2, single determination; read-out: Ki (nM), KOR
Description: Table S2. Off-target screening (to replace table later). We thank Dr. Bryan L. Roth (Univ. North Carolina at Chapel Hill) and National Institute of Mental Health's Psychoactive Drug Screening Program (Contract # HHSN-271-2008-00025-C) for screening data. Reference: Besnard et al. Procedures: https://pdsp.unc.edu/pdspweb/content/UNC-CH%20Protocol%20Book.pdf […] nucleosides were found at the following sites (human unless noted): 5HT1A, 5HT1B, 5HT1D, […]
attribute_measured: Ki

Given the entry CC(C)(C)OC(=O)NCCCCCCCC#Cc1ccc2c(c1)C=C([N+](=O)[O-])C(C(F)(F)F)O2 (stereo not shown) , report its measured Ki.
1400 nM

###

Biological target: 5-HT1A (Homo sapiens, UniProt P08908)
Construct: NIMH Psychoactive Drug Screening Program (PDSP)
Sequence (P08908 1-422): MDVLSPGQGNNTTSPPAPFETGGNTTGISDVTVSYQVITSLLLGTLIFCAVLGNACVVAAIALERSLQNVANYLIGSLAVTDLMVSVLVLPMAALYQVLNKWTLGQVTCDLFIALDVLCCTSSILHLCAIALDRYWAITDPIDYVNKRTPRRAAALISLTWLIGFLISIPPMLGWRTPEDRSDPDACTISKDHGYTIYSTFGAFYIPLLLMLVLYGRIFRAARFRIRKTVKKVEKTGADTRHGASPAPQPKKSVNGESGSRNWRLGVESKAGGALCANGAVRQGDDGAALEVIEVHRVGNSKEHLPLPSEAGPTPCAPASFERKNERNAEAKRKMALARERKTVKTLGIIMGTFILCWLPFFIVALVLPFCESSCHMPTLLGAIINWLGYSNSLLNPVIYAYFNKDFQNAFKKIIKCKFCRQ
Assay: PDSP binding assay, 5-HT1A
Details: Table S2, single determination
From the text: Table S2. Off-target screening (to replace table later). We thank Dr. Bryan L. Roth (Univ. North Carolina at Chapel Hill) and National Institute of Mental Health's Psychoactive Drug Screening Program (Contract # HHSN-271-2008-00025-C) for screening data. Reference: Besnard et al. Procedures: https://pdsp.unc.edu/pdspweb/content/UNC-CH%20Protocol%20Book.pdf […] nucleosides were found at the following sites (human unless noted): 5HT1A, 5HT1B, 5HT1D, […]
attribute_measured: Ki

Given the entry CC(C)(C)OC(=O)NCCCCCCCC#Cc1ccc2c(c1)C=C([N+](=O)[O-])C(C(F)(F)F)O2 (stereo not shown) [Compound 30] , report its measured Ki.
> 10000 nM

###

target: hP2Y6R (Homo sapiens, UniProt Q15077); construct: expressed in transfected cells; assay: UDP (100 nM)-induced Ca2+ mobilization in hP2Y6R stably transfected 1321N1 astrocytoma cells; format: cell-based; conditions: IC50, hP2Y6R (Mean ± SEM), UDP 100 nM; 3–4 independent triplicate determinations
Sequence (Q15077 whole entry): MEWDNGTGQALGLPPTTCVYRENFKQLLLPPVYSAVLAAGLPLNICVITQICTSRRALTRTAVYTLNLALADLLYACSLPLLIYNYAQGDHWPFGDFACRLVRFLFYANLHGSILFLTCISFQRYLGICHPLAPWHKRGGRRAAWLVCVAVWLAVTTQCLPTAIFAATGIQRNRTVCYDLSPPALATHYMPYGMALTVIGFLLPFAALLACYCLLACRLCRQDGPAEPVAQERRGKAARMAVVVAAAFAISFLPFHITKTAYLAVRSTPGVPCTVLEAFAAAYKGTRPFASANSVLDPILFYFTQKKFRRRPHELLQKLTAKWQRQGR
attribute_measured: IC50

Given the entry CC(C)(C)n1nc(-c2nc3cc(Cl)ccc3[nH]2)cc1-c1ccco1 [Compound 4, reference compound] , report its measured IC50.
> 100 µM

###

target: D1 (Homo sapiens, UniProt P21728); construct: NIMH Psychoactive Drug Screening Program (PDSP); experiment: PDSP binding assay, D1; conditions: Table S2, single determination; read-out: Ki (nM), D1
Sequence (P21728 whole entry): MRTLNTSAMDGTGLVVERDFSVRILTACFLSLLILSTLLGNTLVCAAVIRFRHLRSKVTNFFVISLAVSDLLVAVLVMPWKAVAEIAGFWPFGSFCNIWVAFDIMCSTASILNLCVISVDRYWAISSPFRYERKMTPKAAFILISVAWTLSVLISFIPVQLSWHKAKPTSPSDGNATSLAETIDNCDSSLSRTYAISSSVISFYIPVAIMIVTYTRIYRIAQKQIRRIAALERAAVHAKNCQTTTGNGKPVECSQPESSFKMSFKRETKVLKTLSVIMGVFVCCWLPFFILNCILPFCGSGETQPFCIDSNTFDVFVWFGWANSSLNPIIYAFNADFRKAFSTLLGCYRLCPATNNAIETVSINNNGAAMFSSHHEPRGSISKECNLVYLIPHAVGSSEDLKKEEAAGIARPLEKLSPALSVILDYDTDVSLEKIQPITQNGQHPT
attribute_measured: Ki

Given the entry CC(C)(C)OC(=O)NCCCCC#Cc1ccc2c(c1)C=C([N+](=O)[O-])C(C(F)(F)F)O2 (stereo not shown) [Compound 24] , report its measured Ki.
1600 nM
